Recorded protection from staurosporine, viability EC50, MCF10A values for a group of binders are listed next.
Target: native human MET on living human cells (human, UniProt P08581 25-1390)
Sequence (P08581 25-1390): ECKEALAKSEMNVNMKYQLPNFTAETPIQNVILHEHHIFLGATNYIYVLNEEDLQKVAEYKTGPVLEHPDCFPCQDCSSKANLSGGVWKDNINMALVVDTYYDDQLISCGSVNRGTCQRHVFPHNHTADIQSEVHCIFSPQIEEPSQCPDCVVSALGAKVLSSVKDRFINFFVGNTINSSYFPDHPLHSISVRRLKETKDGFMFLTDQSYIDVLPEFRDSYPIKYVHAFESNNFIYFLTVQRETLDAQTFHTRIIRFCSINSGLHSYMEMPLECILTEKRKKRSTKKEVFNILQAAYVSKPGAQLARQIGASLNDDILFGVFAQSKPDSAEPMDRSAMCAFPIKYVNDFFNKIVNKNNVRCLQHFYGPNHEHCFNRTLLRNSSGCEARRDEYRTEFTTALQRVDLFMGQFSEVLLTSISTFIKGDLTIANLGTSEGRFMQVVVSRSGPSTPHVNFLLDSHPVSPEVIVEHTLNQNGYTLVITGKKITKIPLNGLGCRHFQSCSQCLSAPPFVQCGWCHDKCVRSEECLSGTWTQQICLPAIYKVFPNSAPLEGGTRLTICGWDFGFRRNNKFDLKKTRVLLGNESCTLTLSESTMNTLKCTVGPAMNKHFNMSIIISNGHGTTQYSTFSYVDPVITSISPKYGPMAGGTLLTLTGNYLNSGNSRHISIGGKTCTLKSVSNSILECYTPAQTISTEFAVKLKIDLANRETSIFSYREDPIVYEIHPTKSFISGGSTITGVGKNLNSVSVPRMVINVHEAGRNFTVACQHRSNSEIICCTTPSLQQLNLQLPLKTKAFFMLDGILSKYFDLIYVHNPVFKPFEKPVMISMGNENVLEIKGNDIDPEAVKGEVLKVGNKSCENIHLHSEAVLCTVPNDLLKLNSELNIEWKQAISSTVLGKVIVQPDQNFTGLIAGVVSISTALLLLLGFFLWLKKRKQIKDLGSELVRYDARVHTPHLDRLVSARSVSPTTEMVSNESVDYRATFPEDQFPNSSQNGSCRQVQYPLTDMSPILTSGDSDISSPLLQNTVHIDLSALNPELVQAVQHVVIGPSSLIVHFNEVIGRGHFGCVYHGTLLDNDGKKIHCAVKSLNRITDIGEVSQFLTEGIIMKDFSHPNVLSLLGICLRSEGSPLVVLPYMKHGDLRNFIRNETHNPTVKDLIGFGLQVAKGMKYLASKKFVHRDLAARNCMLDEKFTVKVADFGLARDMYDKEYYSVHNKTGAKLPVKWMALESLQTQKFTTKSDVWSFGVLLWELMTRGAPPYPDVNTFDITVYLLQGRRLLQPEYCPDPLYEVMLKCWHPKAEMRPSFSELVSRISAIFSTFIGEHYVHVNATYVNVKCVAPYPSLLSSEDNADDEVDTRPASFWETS
Experiment: cell-based or functional assay
measured-parameter: protection from staurosporine, viability EC50, MCF10A (nM)

binder	result-value
chimeric llama-human IgG1 mAb 71D6 (antibody, V domains shown) VH: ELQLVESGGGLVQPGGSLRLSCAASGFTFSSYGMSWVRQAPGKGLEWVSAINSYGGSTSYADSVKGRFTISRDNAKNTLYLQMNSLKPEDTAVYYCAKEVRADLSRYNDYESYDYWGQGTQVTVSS VL: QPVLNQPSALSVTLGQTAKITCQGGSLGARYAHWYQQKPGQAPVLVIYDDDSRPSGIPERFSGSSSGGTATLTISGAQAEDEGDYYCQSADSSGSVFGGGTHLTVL	1.48
chimeric llama-human IgG1 mAb 71C3 (antibody, V domains shown) VH: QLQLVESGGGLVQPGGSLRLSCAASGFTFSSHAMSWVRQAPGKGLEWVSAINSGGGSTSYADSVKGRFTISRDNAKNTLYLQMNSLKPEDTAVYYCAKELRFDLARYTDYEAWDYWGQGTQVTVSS VL: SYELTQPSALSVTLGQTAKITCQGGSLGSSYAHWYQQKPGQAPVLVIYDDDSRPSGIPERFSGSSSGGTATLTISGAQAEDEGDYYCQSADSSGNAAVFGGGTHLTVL	31.9
